- assayed.system: d-enCas12a (Acidaminococcus sp., UniProt U2UMQ6 1-1307, E174R;S542R;K548R;D908A;E993A;D1235A)
- method.summary: Spec-seq (native PAGE EMSA with sequencing of bound and unbound); 25 mM Tris-HCl pH 7.4, 150 mM KCl, 5 mM MgCl2, 10% glycerol, 1 mM DTT, 40 ng/uL salmon sperm DNA; 400 nM Cas12a, 480 nM crRNA, 50 nM library, 37 C 1 h; native PAGE at room temperature; high values mean tight binding;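 note: relative affinity from the bound to unbound sequence frequency ratio in Spec-seq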
- measurement.setup: protein: recombinant
Please respond with reported binding signal for every item in the list.
Number plus unit, in that order.

Answer with reported binding signal of TATG (dsDNA) DNA 1: GCTATCTAGTGCTCAGTACGCACTGTATGAGGAAACTTCTGGCAGGACCAGGTCATGAGATCGGAAGAGCACACGTCTGAACTCCAGTCA DNA 2: TGACTGGAGTTCAGACGTGTGCTCTTCCGATCTCATGACCTGGTCCTGCCAGAAGTTTCCTCATACAGTGCGTACTGAGCACTAGATAGC RNA: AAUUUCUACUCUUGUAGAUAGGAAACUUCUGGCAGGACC
-1.93 lnKA

Answer with reported binding signal of GAAC (dsDNA) DNA 1: GCTATCTAGTGCTCAGTACGCACTGGAACAGGAAACTTCTGGCAGGACCAGGTCATGAGATCGGAAGAGCACACGTCTGAACTCCAGTCA DNA 2: TGACTGGAGTTCAGACGTGTGCTCTTCCGATCTCATGACCTGGTCCTGCCAGAAGTTTCCTGTTCCAGTGCGTACTGAGCACTAGATAGC RNA: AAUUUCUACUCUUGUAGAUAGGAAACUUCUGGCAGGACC
-5.9 lnKA

Answer with reported binding signal of CCCC (dsDNA) DNA 1: GCTATCTAGTGCTCAGTACGCACTGCCCCAGGAAACTTCTGGCAGGACCAGGTCATGAGATCGGAAGAGCACACGTCTGAACTCCAGTCA DNA 2: TGACTGGAGTTCAGACGTGTGCTCTTCCGATCTCATGACCTGGTCCTGCCAGAAGTTTCCTGGGGCAGTGCGTACTGAGCACTAGATAGC RNA: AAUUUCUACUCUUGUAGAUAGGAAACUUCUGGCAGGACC
-1.8 lnKA

Cited source for all entries: paper PMC8222333
